# Test system: T1, human CXCR4-enriched lipoparticles (Homo sapiens, UniProt P61073)
# T1 construct: purchased Integral Molecular, Philadelphia Pa; LEV101
# T1 sequence (P61073 whole entry): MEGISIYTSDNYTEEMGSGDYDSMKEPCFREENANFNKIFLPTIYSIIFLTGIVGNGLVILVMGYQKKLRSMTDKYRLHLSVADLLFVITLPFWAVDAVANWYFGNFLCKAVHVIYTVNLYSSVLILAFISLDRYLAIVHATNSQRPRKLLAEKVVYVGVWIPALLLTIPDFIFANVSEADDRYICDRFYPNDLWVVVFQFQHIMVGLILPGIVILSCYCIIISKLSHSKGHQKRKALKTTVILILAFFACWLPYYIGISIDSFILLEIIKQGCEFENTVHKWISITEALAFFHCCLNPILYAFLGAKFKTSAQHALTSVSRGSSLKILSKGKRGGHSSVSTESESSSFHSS
# Experimental details: Biosensor affinity measurement of Fabs on CXCR4-enriched lipoparticles
# Format: binding
# Experimental context: Fab; kinetic titration
Measure name: Ka (1/MS)

| Molecule | Result |
| --- | --- |
| h3G10.2.37 VH/h3G10.A58A VL: Fab; VH SEQ ID NO:35, VL SEQ ID NO:57 (antibody, V domains shown, Fab) VH: EVQLVESGGGLVQPGGSLRLSCAASGFTFSDYYMSWVRQAPGKGLEWVGFIRHKANFYTREYSTSVKGRFTISRDDSKNSLYLQMNSLKTEDTAVYYCARDLPGFAYWGQGTLVTVSS VL: DIVMTQSPDSLAVSLGERATINCKSSQSLFNSHTRKNYLAWYQQKPGQPPKLLIYWASARGSGVPDRFSGSGSGTDFTLTISSLQAEDVAVYYCKQSFRLRTFGGGTKVEIK | 1.29E+06 1/MS |
| h3G10 VH/h3G10 VL: Fab; VH SEQ ID NO:21, VL SEQ ID NO:47 (antibody, V domains shown, Fab) VH: EVQLVESGGGLVQPGGSLRLSCAASGFTFSDYYMSWVRQAPGKGLEWVGFIRHKANGYTTEYSTSVKGRFTISRDDSKNSLYLQMNSLKTEDTAVYYCARDLPGFAYWGQGTLVTVSS VL: DIVMTQSPDSLAVSLGERATINCKSSQSLFNSRTRKNYLAWYQQKPGQPPKLLIYWASARESGVPDRFSGSGSGTDFTLTISSLQAEDVAVYYCKQSFNLRTFGGGTKVEIK | 1.60E+06 1/MS |
| h3G10.A57 VH/h3G10 VL: Fab; VH SEQ ID NO:23, VL SEQ ID NO:47 (antibody, V domains shown, Fab) VH: EVQLVESGGGLVQPGGSLRLSCAASGFTFSDYYMSWVRQAPGKGLEWVGFIRHKANFYTTEYSTSVKGRFTISRDDSKNSLYLQMNSLKTEDTAVYYCARDLPGFAYWGQGTLVTVSS VL: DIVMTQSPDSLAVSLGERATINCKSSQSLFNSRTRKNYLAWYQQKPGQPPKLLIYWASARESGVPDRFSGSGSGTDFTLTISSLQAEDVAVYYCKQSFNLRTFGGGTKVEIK | 1.17E+06 1/MS |
| h3G10.A57 VH/h3G10.A58B VL: Fab; VH SEQ ID NO:23, VL SEQ ID NO:73 (antibody, V domains shown, Fab) VH: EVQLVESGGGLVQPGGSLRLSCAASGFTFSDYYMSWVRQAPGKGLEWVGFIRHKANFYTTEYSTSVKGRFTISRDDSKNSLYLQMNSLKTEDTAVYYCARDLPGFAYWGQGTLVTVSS VL: DIVMTQSPDSLAVSLGERATINCKSSQSLFNSHTRKNYLAWYQQKPGQPPKLLIYWASARGSGVPDRFSGSGSGTDFTLTISSLQAEDVAVYYCKQSFNLRTFGGGTKVEIK | 6.88E+05 1/MS |
| h3G10.1.91 VH/h3G10.A58B VL: Fab; VH SEQ ID NO:33, VL SEQ ID NO:73 (antibody, V domains shown, Fab) VH: EVQLVESGGGLVQPGGSLRLSCAASGFTFSDYYMSWVRQAPGKGLEWVGFIRHKANFETTEYSTSVKGRFTISRDDSKNSLYLQMNSLKTEDTAVYYCARDLPGFAYWGQGTLVTVSS VL: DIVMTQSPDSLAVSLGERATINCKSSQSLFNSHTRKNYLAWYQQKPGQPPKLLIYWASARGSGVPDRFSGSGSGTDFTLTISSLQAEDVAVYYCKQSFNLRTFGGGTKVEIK | 8.03E+05 1/MS |
